Cited source for all entries: patent US6380238B1

- testedOn: 5-HT2C receptor (Homo sapiens)
- assayComment: Functional activity, FLIPR calcium assay in CHO cells expressing human 5-HT2C
- Assay type: cell-based
- Parameters: expressed in transfected cells; host or cells: CHO cells
- conditionDescription: FLIPR, CHO cells, Fluo-3-AM; read-out: h5-HT2C EC50
Where a name gives a salt, the structure may show the parent alone.
We begin with a simple list: items and their reported EC50.
# value in nM; strip the unit string

// worked examples, EC50 included
compound	unitsSymbol	EC50
NCCN1CCc2ccc([N+](=O)[O-])cc21 [Example 53, Fumarate]	nM	266
NCCN1CCc2ccc(Br)cc21 [Example 50, Fumarate]	nM	38
NCCN1CCc2ccc(Cl)cc21 [Example 51, Fumarate]	nM	36

Attention now turns to another entry.
The recorded EC50 with 5-HT2C receptor (Homo sapiens) for C[C@H](N)CN1CCc2ccc(N3CCOCC3)cc21 [Example 49, Fumarate] was 5480

###

- testedOn: 5-HT2A receptor (Homo sapiens)
- assayComment: Functional activity, FLIPR calcium assay in CHO cells expressing human 5-HT2A
- Assay type: cell-based
- Design: expressed in transfected cells; host or cells: CHO cells
- conditionDescription: FLIPR, CHO cells, Fluo-3-AM; read-out: h5-HT2A EC50
- Method: The functional activity of compounds of formula (I) was assayed using a Fluorimetric Imaging Plate reader (FLIPR). CHO cells expressing the human 5-HT2C or human 5-HT2A receptors were counted and plated into standard 96 well microtitre plates on the day before testing to give a confluent monolayer. […] The drug (dissolved in 50 μL of the assay buffer) was added at a rate of 70 μL/sec to each well of the FLIPR 96 well plate during fluorescence measurements. […]
Counter-ions that a name gives are not always drawn.
assayEndpoint: EC50
Please make sure the unit comes right after the number.

compound	EC50
NCCN1CCc2ccc(Cl)cc21 [Example 51, Fumarate]	1.89 µM

Given the compound NCCN1CCc2ccc([N+](=O)[O-])cc21 [Example 53, Fumarate] and test system 5-HT2A receptor (Homo sapiens), the measured EC50 is 2.31 µM

Record NCCN1CCc2ccc(Br)cc21 [Example 50, Fumarate] / 5-HT2A receptor (Homo sapiens), EC50 recorded as 4.08 µM

###

- testedOn: 5-HT2C receptor (Homo sapiens, UniProt P28335)
- Sequence (P28335 33-458): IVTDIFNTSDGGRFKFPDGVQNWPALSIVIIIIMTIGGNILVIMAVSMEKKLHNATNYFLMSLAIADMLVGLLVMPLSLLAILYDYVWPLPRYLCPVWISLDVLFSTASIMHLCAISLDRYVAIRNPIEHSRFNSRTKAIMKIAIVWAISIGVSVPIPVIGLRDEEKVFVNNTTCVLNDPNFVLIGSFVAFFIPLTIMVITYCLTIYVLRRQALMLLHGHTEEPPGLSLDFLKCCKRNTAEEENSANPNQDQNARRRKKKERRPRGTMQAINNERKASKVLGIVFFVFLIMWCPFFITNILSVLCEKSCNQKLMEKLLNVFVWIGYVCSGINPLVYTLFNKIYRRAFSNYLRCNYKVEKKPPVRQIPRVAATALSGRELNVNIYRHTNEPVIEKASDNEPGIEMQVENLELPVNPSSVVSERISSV
- assayComment: Functional activity, FLIPR calcium assay in CHO cells expressing human 5-HT2C
- Type: cell-based
- Set-up: expressed in transfected cells; host or cells: CHO cells
pEC50: −log10 of the molar value. Counter-ions that a name gives are not always drawn.
Please note: True applies when pEC50 is 7 or greater, and False applies otherwise.

compound	testedOn	labelValue
C[C@H](N)CN1CCc2cc(F)ccc21	5-HT2C receptor (Homo sapiens, UniProt P28335)	False
C[C@@H](N)CN1CCc2ccc(Br)cc21	5-HT2C receptor (Homo sapiens, UniProt P28335)	False
C[C@H](N)CN1CCc2cc(F)cc(Cl)c21	5-HT2C receptor (Homo sapiens, UniProt P28335)	False
C[C@H](N)CN1CCc2ccc(Br)cc21	5-HT2C receptor (Homo sapiens, UniProt P28335)	False
C[C@H](N)CN1CCc2cc(F)c(Br)cc21	5-HT2C receptor (Homo sapiens, UniProt P28335)	True

Prompt: Dear colleague, could you confirm whether C[C@H](N)CN1CCc2ccc(F)cc21 has pEC50 at or above 7?
Response: False

Prompt: Is the recorded value of pEC50 equal to or greater than 7 for this compound? C[C@H](N)CN1CCc2cc(Br)ccc21
Response: False

Prompt: Given Cc1cc2c(cc1F)CCN2C[C@H](C)N [Example 62, Fumarate] , state whether its pEC50 is at least 7.
Response: False

Prompt: Kindly determine if pEC50 recorded for CSc1cc2c(cc1F)CCN2CC(C)N (centres unmarked) is above or exactly 7.
Response: True

Prompt: API: above_or_equal(metric=pEC50, cutoff=7) for item C[C@H](N)CN1CCc2c(F)cccc21
Response: False

###

- testedOn: UniProt P28223
- assayComment: Binding to 5-HT2A receptor, [125I]-DOI radioligand, CHO cell line
- Design: expressed in transfected cells; host or cells: CHO cell line
Where a name gives a salt, the structure may show the parent alone.
Threshold 1000 nM. Ki below it: y. Ki at it or above: n.

Example entries and their recorded answers appear below.
molecule	testedOn	labelValue
COc1ccc2c(c1)N(C[C@H](C)N)CC2 [Example 13]	UniProt P28223	y
CC(N)CN1CCc2ccc(Cl)cc21 (racemic) [Example 1, Hydrochloride]	UniProt P28223	y
C[C@H](N)CN1CCc2cc(F)c(F)cc21 [Example 22]	UniProt P28223	y
C[C@H](N)CN1CCc2ccc(C(F)(F)F)cc21 [Example 24]	UniProt P28223	n
C[C@H](N)CN1CCc2ccc(Br)cc21 [Example 12]	UniProt P28223	n
C[C@H](N)CN1CCc2ccc(Cl)cc21 [Example 10, Fumarate]	UniProt P28223	y

Prompt: Strictly below 1000 nM: is that where Ki of C[C@H](N)CN1CCc2cc(F)c(Br)cc21 [Example 25] sits?
Response: y

Prompt: Criterion: Ki strictly below 1000 nM. Is it met by C[C@@H](N)CN1CCc2ccc(C(F)(F)F)cc21 [Example 26] ?
Response: n

###

Structures can show the parent of a compound that is named as a salt.
assayEndpoint: melting point

Reference set (4 entries):
compound	melting point
C[C@H](N)CN1CCc2ccc(Cl)c(Cl)c21 (as salt: fumarate)	176 to 178 °C
NCCN1CCc2ccc(Cl)cc21 (as salt: fumarate)	195 to 196 °C
CC(N)CN1CCc2ccc(Cl)cc21 (racemic) (as salt: hydrochloride)	262 °C
C[C@H](N)CN1CCc2cc(F)c(C(F)(F)F)cc21 (as salt: fumarate)	190 to 192 °C

Now consider the entry below.
In plain terms, CC(N)CN1CCc2c(OCc3ccccc3)cccc21 (centres unmarked) (as salt: HCl) has a documented melting point of 188 to 190 °C

###

List of Emax values.
- testedOn: 5-HT2A receptor (Homo sapiens, UniProt P28223)
- Sequence (P28223 whole entry): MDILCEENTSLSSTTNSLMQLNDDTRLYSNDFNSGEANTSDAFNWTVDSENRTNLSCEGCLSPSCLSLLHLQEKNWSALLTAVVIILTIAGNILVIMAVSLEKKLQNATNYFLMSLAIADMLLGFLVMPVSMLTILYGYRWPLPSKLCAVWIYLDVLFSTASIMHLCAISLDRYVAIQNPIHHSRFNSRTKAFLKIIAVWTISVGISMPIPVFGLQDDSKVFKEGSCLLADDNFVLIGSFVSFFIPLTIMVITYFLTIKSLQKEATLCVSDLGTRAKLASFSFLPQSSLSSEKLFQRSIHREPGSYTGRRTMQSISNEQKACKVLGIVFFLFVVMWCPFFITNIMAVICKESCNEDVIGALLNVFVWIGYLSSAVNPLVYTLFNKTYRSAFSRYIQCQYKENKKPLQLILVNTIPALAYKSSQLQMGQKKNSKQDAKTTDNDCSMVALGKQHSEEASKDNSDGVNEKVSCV
- assayComment: Functional activity, FLIPR calcium assay in CHO cells expressing human 5-HT2A
- Type: cell-based
- Parameters: expressed in transfected cells; host or cells: CHO cells
- conditionDescription: CHO, read-out: h5-HT2A Relative Efficacy (%)
# unit: % | format: bare number

compound	unitsSymbol	Emax
COc1ccc2c(c1)N(C[C@H](C)N)CC2 [Example 13]	%	72
C[C@H](N)CN1CCc2cc(F)cc(Cl)c21 [Example 17]	%	40
CC(C)Sc1ccc2c(c1)N(C[C@H](C)N)CC2 [Example 42]	%	43
CCSc1ccc2c(c1)N(C[C@H](C)N)CC2 [Example 40]	%	64
C[C@@H](N)CN1CCc2ccc(Br)cc21 [Example 18]	%	7

Data point: Cc1cccc2c1CCN2C[C@H](C)N [Example 32] ; Emax = 26

###

Where a name gives a salt, the structure may show the parent alone.
assayEndpoint: melting point

compound	assayEndpoint	assayValue
CC(N)CN1CCc2ccc(C(F)(F)F)cc21 (stereo not drawn) (as salt: fumarate)	melting point	154 to 158 °C
C[C@H](N)CN1CCc2c(Cl)cccc21 (as salt: fumarate) [Example 38]	melting point	190 to 192 °C
C[C@H](N)CN1CCc2cccc(Br)c21 (as salt: fumarate) [Example 20]	melting point	202 to 204 °C
C[C@@H](N)CN1CCc2ccc(C(F)(F)F)cc21 (as salt: fumarate) [Example 26]	melting point	196 to 197 °C

Looking up Cc1ccc2c(c1)N(CC(C)N)CC2 (stereo not drawn) (as salt: HCl) , I found its melting point recorded as 178 to 179 °C

The value of melting point measured for the compound C[C@H](N)CN1CCc2cc(F)c(I)cc21 (as salt: fumarate) [Example 61] turned out to be 185 to 187 °C

Looking up CCSc1cc2c(cc1F)CCN2C[C@H](C)N (as salt: fumarate) [Example 31] , I found its melting point recorded as 164 to 168 °C

Form field melting point, entry CCC(N)CN1CCc2ccc(Cl)cc21 (stereo not drawn) (as salt: HCl) : 188 to 192 °C

get_value(item= C[C@H](N)CN1CCc2ccc(-c3cccnc3)cc21 (as salt: fumarate) [Example 47] , readout=melting point) returns 155 °C (dec.)

Short answer for COc1ccc2c(c1)N(CC(C)N)CC2 (racemic) (as salt: hydrochloride) [Example 2] : melting point was 142 to 143 °C

Measured melting point of CN(C)CCN1CCc2ccc(Cl)cc21 (as salt: fumarate) : 144 to 146 °C

The compound listed as NCCN1CCc2ccc(Br)cc21 (as salt: fumarate) [Example 50] shows melting point equal to 203 to 206 °C

Record summary for C[C@H](N)CN1CCc2c(F)cccc21 (as salt: fumarate) [Example 35] : reported melting point = 167 to 168 °C

So, C[C@@H](N)CN1CCc2ccc(Cl)c(Cl)c21 (as salt: fumarate) ? Its melting point was 213 to 214 °C

For CC(C)CCN[C@@H](C)CN1CCc2ccc(Br)cc21 (as salt: HCl) the compound record lists melting point as 161 to 163 °C

Entry CCc1cccc2c1N(C[C@H](C)N)CC2 (as salt: fumarate) [Example 37] , melting point reported as 182 to 183 °C

// melting point value for C[C@H](N)CN1CCc2cc(F)cc(Cl)c21 (as salt: fumarate) [Example 17] : 195 to 196 °C

Recorded melting point (compound C[C@@H](N)CN1CCc2cccc(Br)c21 (as salt: fumarate) [Example 19] ): 197 °C

So for C[C@H](N)CN1CCc2cc(Cl)ccc21 (as salt: fumarate) [Example 28] , the logged melting point turned out to be 207 to 210 °C
